Data credit: the supplement of paper PMC7877785

Test: self-splicing fitness, log relative to wild type (ln ratio); higher = more splicing; Tetrahymena group I intron in knt gene, E. coli kanamycin selection, DiMSum; sequences stand for … in CUCUCU…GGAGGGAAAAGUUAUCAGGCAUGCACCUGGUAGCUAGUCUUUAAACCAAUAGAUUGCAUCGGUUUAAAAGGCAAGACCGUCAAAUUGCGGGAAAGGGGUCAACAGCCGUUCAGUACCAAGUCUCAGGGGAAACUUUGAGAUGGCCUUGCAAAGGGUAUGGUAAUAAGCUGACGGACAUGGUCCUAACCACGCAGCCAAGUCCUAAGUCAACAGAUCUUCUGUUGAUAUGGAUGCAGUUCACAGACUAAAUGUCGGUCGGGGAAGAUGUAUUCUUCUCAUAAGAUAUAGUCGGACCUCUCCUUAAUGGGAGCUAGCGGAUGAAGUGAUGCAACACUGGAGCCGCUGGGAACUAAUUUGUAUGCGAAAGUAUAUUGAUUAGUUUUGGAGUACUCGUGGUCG;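 also: selection with 25 µg/mL kanamycin versus none on LB agar overnight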
Details: 30 °C
Assign 1 to entries whose self-splicing fitness (ln) meets or exceeds -3; assign -1 to the rest.

- ACGGAGCAAUAUUACGGGUU: -1

Problem: Kindly determine if self-splicing fitness (ln) recorded for `UAAAAGCAAUAUUACGCCAG` is above or exactly -3.
Result: 1

Problem: Kindly determine if self-splicing fitness (ln) recorded for `AAGAAGCAAUAUUACGUUAC` is above or exactly -3.
Result: -1

Problem: Kindly determine if self-splicing fitness (ln) recorded for `UGCUAGCAAUAUUACGCUAC` is above or exactly -3.
Result: 1

Problem: Kindly determine if self-splicing fitness (ln) recorded for `UUGCAGCAAUAUUACGGCUC` is above or exactly -3.
Result: 1

Problem: Kindly determine if self-splicing fitness (ln) recorded for `CAGCAGCAAUAUUACGAGUC` is above or exactly -3.
Result: -1

Problem: Kindly determine if self-splicing fitness (ln) recorded for `AAGAAGCAAUAUUACGCCAA` is above or exactly -3.
Result: 1

Problem: Kindly determine if self-splicing fitness (ln) recorded for `GCGGAGCAAUAUUACGAUAU` is above or exactly -3.
Result: 1

Problem: Kindly determine if self-splicing fitness (ln) recorded for `UUUAAGCAAUAUUACGGAUG` is above or exactly -3.
Result: 1

Problem: Kindly determine if self-splicing fitness (ln) recorded for `AGUGAGCAAUAUUACGGUCG` is above or exactly -3.
Result: -1

Problem: Kindly determine if self-splicing fitness (ln) recorded for `UACAAGCAAUAUUACGACUG` is above or exactly -3.
Result: 1

---

Assay: self-splicing fitness, log relative to wild type (ln ratio); higher = more splicing; Tetrahymena group I intron in knt gene, E. coli kanamycin selection, DiMSum; sequences stand for … in CUCUCU…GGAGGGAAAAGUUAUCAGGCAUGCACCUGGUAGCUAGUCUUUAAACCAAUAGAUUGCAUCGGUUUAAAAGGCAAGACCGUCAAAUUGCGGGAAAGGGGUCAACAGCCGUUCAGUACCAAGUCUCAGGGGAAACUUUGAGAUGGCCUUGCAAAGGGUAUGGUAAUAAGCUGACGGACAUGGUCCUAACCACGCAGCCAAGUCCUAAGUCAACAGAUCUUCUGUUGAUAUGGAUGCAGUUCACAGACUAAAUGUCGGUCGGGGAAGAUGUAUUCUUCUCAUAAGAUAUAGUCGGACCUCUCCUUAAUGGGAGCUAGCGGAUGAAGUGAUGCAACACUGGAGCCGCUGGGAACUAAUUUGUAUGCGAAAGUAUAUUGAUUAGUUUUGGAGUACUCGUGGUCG
Settings: 30 °C
sequences and their reported self-splicing fitness (ln)
Answer with a bare number; do not write a unit.

Example sequences with recorded self-splicing fitness (ln):
• UCGCAGCAAUAUUACGGCAU = -1.99
• AGUGAGCAAUAUUACGACUC = -3.04
• CGAAAGCAAUAUUACGAGAG = -3.12
• GACAAGCAAUAUUACGGAGG = -4.57
• UCAGAGCAAUAUUACGUAUA = -3.46
• UUUUAGCAAUAUUACGGUCG = -0.778

Problem: Tell me self-splicing fitness (ln) reported for `AUCCAGCAAUAUUACGGGUU`
Result: -3.75

Problem: Tell me self-splicing fitness (ln) reported for `GAUAAGCAAUAUUACGAGAG`
Result: -2.84

Problem: Tell me self-splicing fitness (ln) reported for `UGACAGCAAUAUUACGUCUC`
Result: -4.29

Problem: Tell me self-splicing fitness (ln) reported for `CUCGAGCAAUAUUACGUUGC`
Result: -3.84

Problem: Tell me self-splicing fitness (ln) reported for `UAACAGCAAUAUUACGGUGU`
Result: -2.93

Problem: Tell me self-splicing fitness (ln) reported for `AUACAGCAAUAUUACGCUUC`
Result: -3.06

Problem: Tell me self-splicing fitness (ln) reported for `UUGUAGCAAUAUUACGACAA`
Result: -0.0967
